Attribution: patent US20170045513A1

Please provide measured Percent of maximal response to individual gluten peptides, IP-10 for the entries that follow.
Test system: gluten-reactive T cells
protocol: 96-well plate whole blood cytokine release, IP-10 by MAGPIX multiplex bead assay
Type: cell-based, human
condition.summary: Subject 2; after oral gluten challenge; Max. 3646 pg/mL
Non-standard residues stand in square brackets, D forms with d. pGlu = O=C1CC[C@@H](C(=O)O)N1

(pE)QPFPQPELPYPYPQ-amide ([pGlu]QPFPQPELPYPYPQ-NH2; SMILES CC(C)C[C@H](NC(=O)[C@H](CCC(=O)O)NC(=O)[C@@H]1CCCN1C(=O)[C@H](CCC(N)=O)NC(=O)[C@@H]1CCCN1C(=O)[C@H](Cc1ccccc1)NC(=O)[C@@H]1CCCN1C(=O)[C@H](CCC(N)=O)NC(=O)[C@@H]1CCC(=O)N1)C(=O)N1CCC[C@H]1C(=O)N[C@@H](Cc1ccc(O)cc1)C(=O)N1CCC[C@H]1C(=O)N[C@@H](Cc1ccc(O)cc1)C(=O)N1CCC[C@H]1C(=O)N[C@@H](CCC(N)=O)C(N)=O) [Peptide 16] : 45 % of max

I have 4 substances here; please give me Percent of maximal response to individual gluten peptides, IP-10 for each one.
1. (pE)QPYPQPELPYPQPQ-amide ([pGlu]QPYPQPELPYPQPQ-NH2; SMILES CC(C)C[C@H](NC(=O)[C@H](CCC(=O)O)NC(=O)[C@@H]1CCCN1C(=O)[C@H](CCC(N)=O)NC(=O)[C@@H]1CCCN1C(=O)[C@H](Cc1ccc(O)cc1)NC(=O)[C@@H]1CCCN1C(=O)[C@H](CCC(N)=O)NC(=O)[C@@H]1CCC(=O)N1)C(=O)N1CCC[C@H]1C(=O)N[C@@H](Cc1ccc(O)cc1)C(=O)N1CCC[C@H]1C(=O)N[C@@H](CCC(N)=O)C(=O)N1CCC[C@H]1C(=O)N[C@@H](CCC(N)=O)C(N)=O) [Peptide 15]
2. (pE)QPPFSEQEQPVLPQ-amide (N-terminal pyroglutamate; C-terminal amide) [Peptide 13]
3. (pE)PEQPIPEQPQPYPQQ-amide ([pGlu]PEQPIPEQPQPYPQQ-NH2; SMILES CC[C@H](C)[C@H](NC(=O)[C@@H]1CCCN1C(=O)[C@H](CCC(N)=O)NC(=O)[C@H](CCC(=O)O)NC(=O)[C@@H]1CCCN1C(=O)[C@@H]1CCC(=O)N1)C(=O)N1CCC[C@H]1C(=O)N[C@@H](CCC(=O)O)C(=O)N[C@@H](CCC(N)=O)C(=O)N1CCC[C@H]1C(=O)N[C@@H](CCC(N)=O)C(=O)N1CCC[C@H]1C(=O)N[C@@H](Cc1ccc(O)cc1)C(=O)N1CCC[C@H]1C(=O)N[C@@H](CCC(N)=O)C(=O)N[C@@H](CCC(N)=O)C(N)=O) [Peptide 3]
4. (pE)LQPFPQPELPYPQPQ-amide ([pGlu]LQPFPQPELPYPQPQ-NH2; SMILES CC(C)C[C@H](NC(=O)[C@@H]1CCC(=O)N1)C(=O)N[C@@H](CCC(N)=O)C(=O)N1CCC[C@H]1C(=O)N[C@@H](Cc1ccccc1)C(=O)N1CCC[C@H]1C(=O)N[C@@H](CCC(N)=O)C(=O)N1CCC[C@H]1C(=O)N[C@@H](CCC(=O)O)C(=O)N[C@@H](CC(C)C)C(=O)N1CCC[C@H]1C(=O)N[C@@H](Cc1ccc(O)cc1)C(=O)N1CCC[C@H]1C(=O)N[C@@H](CCC(N)=O)C(=O)N1CCC[C@H]1C(=O)N[C@@H](CCC(N)=O)C(N)=O) [Peptide 1]

30 % of max
16 % of max
14 % of max
100 % of max
